System: UACC-62 melanoma
Experiment: NCI tumour cell line growth inhibition, 48 h
Listing of recorded TGI by entry.

Molecule: COc1ccc(-c2c(/C=N/OCC(=O)O)c3sc4ccccc4n3c2/C=N/OCC(=O)O)cc1
Test Target: UACC-62 melanoma
TGI: > 50 µM
--
Molecule: CC(=O)c1c(-c2ccco2)c(C#N)c(=S)n(C2OC(CO)C(O)C(O)C2O)c1C (stereo not given)
Test Target: UACC-62 melanoma
TGI: > 100 µM
--
Molecule: CCOC(=O)C(Cc1cc(OC)c(CC(C(=O)OCC)C(=O)OCC)cc1OC)C(=O)OCC
Test Target: UACC-62 melanoma
TGI: > 100 µM
--
Molecule: Cc1cc(C)nc(NC(=O)COc2ccc(Cl)cc2)c1
Test Target: UACC-62 melanoma
TGI: > 100 µM

Here is another molecule to look at.
Ask | // returns reported TGI for input COc1ccc(C2C3=C(COC3=O)Oc3cc4c(cc32)OCO4)cc1OC (stereo not given)
Reply | > 100 µM

* * *

Listing of recorded TGI by entry.
System: K-562 leukemia
Test: NCI tumour cell line growth inhibition, 48 h
Your answer is read as µM, so omit the unit and give the number.

Molecule: C[C@@H]1C[C@@H]2OC(=O)[C@]3(C)[C@H]2[C@@H](OC3(C)O)[C@]2(C)C(=O)C=C[C@@H]12 (some centres undefined)
Measurement Label: TGI
Unit Tag: µM
Value Observed: 2.69

Here is another molecule to look at.
Ask | // returns reported TGI for input OC(Cc1cccc2ccccc12)CN1CCC(c2ccccc2)CC1 (centres undefined)
Reply | 38.1

* * *

Test system: SF-295 CNS
Test: NCI tumour cell line growth inhibition, 48 h
Listing of recorded TGI by entry.

Molecule: CSCc1ncc(-c2ccc(C(F)(F)F)cc2)c(NC2CCCCCC2)n1
Test Target: SF-295 CNS
Value Observed: > 10 µM
--
Molecule: COc1cc(C2CC(c3ccc(Cl)cc3)=NN2C(C)=O)ccc1Oc1ccnc2cc(Cl)ccc12 (centres undefined)
Test Target: SF-295 CNS
Value Observed: > 100 µM
--
Molecule: CSCSCC(CO)NC(=O)/C=C\c1c(C)[nH]c(=O)[nH]c1=O (centres undefined)
Test Target: SF-295 CNS
Value Observed: 209 µM
--
Molecule: COC(=O)N[C@@H](C)CNc1nccc(-c2cn(C(C)C)nc2-c2cc(Cl)cc(NS(C)(=O)=O)c2F)n1
Test Target: SF-295 CNS
Value Observed: > 100 µM
--
Molecule: O=C1C(=O)N(c2cc(Cl)ccc2Cl)C(=O)C(=O)C1c1nc2ccccc2s1
Test Target: SF-295 CNS
Value Observed: > 100 µM
--
Molecule: CNCC(SC)c1ccc(O)c(O)c1 (centres undefined)
Test Target: SF-295 CNS
Value Observed: > 100 µM

Ask | So what TGI did O=C(O)C(Cc1ccccc1)N1C(=O)/C(=C/C(Cl)=C/c2ccc([N+](=O)[O-])cc2)SC1=S (centres undefined) get with SF-295 CNS?
Reply | 7.85 µM

Ask | So what TGI did `O=C(CC1(O)CCCCC1)OC1CCCC1` get with SF-295 CNS?
Reply | > 100 µM

Ask | So what TGI did `O=C(NCCCN1CCN(CCCNC(=O)Nc2cc(Cl)ccc2Cl)CC1)Nc1cc(Cl)ccc1Cl` get with SF-295 CNS?
Reply | > 100 µM

meta.source: PubChem BioAssay (NCI)
